src = patent US12129247B2

assay: Levodopa pharmacokinetics in Parkinson's Disease patients after single COMPOUND A 25, 50, 100 mg (Example 3c); type: in vivo, human (Parkinson's Disease patients); conditions: human, in vivo, oral, Day 4, Group 1, 24 h after Placebo
Property Name: Cmax (ng/mL)
Value expressed in ng/mL; do not type the unit.

Value of Cmax reported for the compound N[C@@H](Cc1ccc(O)c(O)c1)C(=O)O [levodopa, reference compound] is 2130

---

test: Levodopa pharmacokinetics in Parkinson's Disease patients after single COMPOUND A 25, 50, 100 mg (Example 3c); assay type: in vivo, human (Parkinson's Disease patients); conditions: human, in vivo, oral, Day 4, Group 1, 24 h after Placebo; read-out: levodopa t1/2 (converted)
Property Name: half-life (h)
Value expressed in h; do not type the unit.

Value of half-life reported for the compound N[C@@H](Cc1ccc(O)c(O)c1)C(=O)O [levodopa, reference compound] is 1.96

---

assay: Levodopa pharmacokinetics in Parkinson's Disease patients after single COMPOUND A 25, 50, 100 mg (Example 3c); type: in vivo, human (Parkinson's Disease patients); settings: human, in vivo, oral; Day 2, 24 h before administration of Compound A, Group 2 (25 mg group)
Property Name: Tmax
Write the numeric value and append its unit.

Value of Tmax reported for the molecule N[C@@H](Cc1ccc(O)c(O)c1)C(=O)O [levodopa, reference compound] is 30 min

---

Experiment: Levodopa pharmacokinetics in Parkinson's Disease patients after single COMPOUND A 25, 50, 100 mg (Example 3c)
Format: in vivo, human (Parkinson's Disease patients)
Details: human, in vivo, oral, Day 4, Group 1, 24 h after Placebo; read-out: levodopa AUC0-6
Method: This study was a three-center, double-blind, randomised, placebo-controlled, cross-over study to investigate the tolerability and effect a single administration of three dosages of COMPOUND A (25, 50 and 100 mg) on the levodopa pharmacokinetics, motor response, and erythrocyte soluble catechol-O-methyltransferase activity in 10 Parkinson's Disease patients concomitantly treated with levodopa/dopa-decarboxylase inhibitor. […]
Property Name: AUC(0-t) (ng·h/mL)
Value expressed in ng·h/mL; do not type the unit.

Value of AUC(0-t) reported for the compound N[C@@H](Cc1ccc(O)c(O)c1)C(=O)O [levodopa, reference compound] is 3820

---

Assay: Levodopa pharmacokinetics in Parkinson's Disease patients after single COMPOUND A 25, 50, 100 mg (Example 3c)
Type: in vivo, human (Parkinson's Disease patients)
Settings: human, in vivo, oral, 100 mg, Day 2, 24 h before administration of Compound A, Group 4 (100 mg group)
Procedure: This study was a three-center, double-blind, randomised, placebo-controlled, cross-over study to investigate the tolerability and effect a single administration of three dosages of COMPOUND A (25, 50 and 100 mg) on the levodopa pharmacokinetics, motor response, and erythrocyte soluble catechol-O-methyltransferase activity in 10 Parkinson's Disease patients concomitantly treated with levodopa/dopa-decarboxylase inhibitor. […]
Property Name: Cmax

Value of Cmax reported for the molecule N[C@@H](Cc1ccc(O)c(O)c1)C(=O)O [levodopa, reference compound] is 1880 ng/mL

---

Test: Levodopa pharmacokinetics in Parkinson's Disease patients after single COMPOUND A 25, 50, 100 mg (Example 3c)
Format: in vivo, human (Parkinson's Disease patients)
Settings: human, in vivo, oral; Day 2, 24 h before administration of Compound A, Group 4 (100 mg group)
Protocol: This study was a three-center, double-blind, randomised, placebo-controlled, cross-over study to investigate the tolerability and effect a single administration of three dosages of COMPOUND A (25, 50 and 100 mg) on the levodopa pharmacokinetics, motor response, and erythrocyte soluble catechol-O-methyltransferase activity in 10 Parkinson's Disease patients concomitantly treated with levodopa/dopa-decarboxylase inhibitor. […]
Property Name: Tmax (h)
Value expressed in h; do not type the unit.

Value of Tmax reported for the compound N[C@@H](Cc1ccc(O)c(O)c1)C(=O)O [levodopa, reference compound] is 1

---

assay: Levodopa pharmacokinetics in Parkinson's Disease patients after single COMPOUND A 25, 50, 100 mg (Example 3c); type: in vivo, human (Parkinson's Disease patients); conditions: human, in vivo, oral, Day 2, 24 h before administration of Compound A, Group 1 (placebo group); Sinemet 25/100 or Madopar/Restex 125
Property Name: Cmax

Value of Cmax reported for the compound N[C@@H](Cc1ccc(O)c(O)c1)C(=O)O [levodopa, reference compound] is 2510 ng/mL

---

Test: Levodopa pharmacokinetics in Parkinson's Disease patients after single COMPOUND A 25, 50, 100 mg (Example 3c)
Assay type: in vivo, human (Parkinson's Disease patients)
Conditions: human, in vivo, oral, 50 mg, Day 2, 24 h before administration of Compound A, Group 3 (50 mg group); read-out: levodopa AUC0-6
Method: This study was a three-center, double-blind, randomised, placebo-controlled, cross-over study to investigate the tolerability and effect a single administration of three dosages of COMPOUND A (25, 50 and 100 mg) on the levodopa pharmacokinetics, motor response, and erythrocyte soluble catechol-O-methyltransferase activity in 10 Parkinson's Disease patients concomitantly treated with levodopa/dopa-decarboxylase inhibitor. […]
Property Name: AUC(0-t) (ng·h/mL)
Value expressed in ng·h/mL; do not type the unit.

Value of AUC(0-t) reported for the molecule N[C@@H](Cc1ccc(O)c(O)c1)C(=O)O [levodopa, reference compound] is 3830
